# Tested on: bronchus in guinea pigs (contractile response induced by Mch)
# assayText: Antagonism of contractile response of bronchus in guinea pigs induced by methacholine (Mch); airway resistance and pulmonary dynamic compliance
# Assay type: in vivo, guinea pig
# setupConditions: 3 μg/kg dropped in the airway, Mch 10 μg/kg iv after 30 min; Mean ± S.E.M
measurementKind: Cdyn(ml/cm H2O)
Please respond with the number in ml/cm H2O and leave the unit unwritten.

compound: O[C@@](CO[C@@H]1C[N+]2(CCOc3ccccc3)CCC1CC2)(c1ccccc1)C1CCCC1.[Br-]
quantitativeReadout: 0.143
--
compound: OC(CO[C@H]1C[N+]2(CCCOc3ccccc3)CCC1CC2)(c1ccccc1)C1CCC1.[Br-] (stereo partly shown)
quantitativeReadout: 0.141
--
compound: OC(CO[C@@H]1C[N+]2(CCCOc3ccccc3)CCC1CC2)(c1ccccc1)C1CCCC1.[Br-] (stereo partly shown)
quantitativeReadout: 0.137

Proceeding to the next compound to report its Cdyn(ml/cm H2O).
Problem: Could you share which Cdyn(ml/cm H2O) value was measured for O[C@@](COC1C[N+]2(CCCOc3ccccc3)CCC1CC2)(c1ccccc1)C1CCCCC1.[Br-] (stereo partly shown) ?
Result: 0.135
